Documented pIC50 across a set of compounds
Molecular target: human PD-L1 / Human PD-1 (Homo sapiens (Human), UniProt Q9NZQ7)
Sequence (Q9NZQ7 19-239): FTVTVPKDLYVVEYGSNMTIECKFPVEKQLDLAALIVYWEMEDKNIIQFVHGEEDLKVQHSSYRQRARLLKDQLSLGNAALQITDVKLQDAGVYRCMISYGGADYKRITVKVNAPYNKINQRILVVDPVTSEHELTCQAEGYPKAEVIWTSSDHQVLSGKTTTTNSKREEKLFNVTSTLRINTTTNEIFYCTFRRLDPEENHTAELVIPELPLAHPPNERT
Test: Enzyme-Linked Immunosorbent Assay (ELISA), PD-1/PD-L1 binding
Conditions: Table 2; plate-coated human PD-L1, biotinylated human PD-1; read-out: ELISA IC50
pIC50: −log10 of the molar value.
OBSERVED PROPERTY: pIC50

In [3]: df
Out[3]:
                                    compound  observed_property        result
 0  N#Cc1cncc(COc2cc(OC3CCc4c(-c5ccccc5)cccc43)c(Cl)cc2CN[C@@H](CO)C(=O)O)c1 (stereo partly shown) [Example 1.001]              pIC50        > 7.00
 1  N#Cc1cncc(COc2cc(OC3CCc4c(-c5ccccc5)cccc43)c(Cl)cc2CN2CC(O)C2)c1 (stereo not shown) [Example 1.007]              pIC50  6.30 to 7.00
 2  OC1CCN(Cc2cc(Cl)c(O[C@H]3CCc4c(-c5ccccc5F)cccc43)cc2OCc2cnc(Cl)nc2)CC1 [Example 2.111]              pIC50  6.30 to 7.00
 3  COc1cccc(-c2cccc3c2CC[C@@H]3Oc2cc(OCc3cncc(C#N)c3)c(CN3CCOCC3)cc2Cl)c1Cl [Example 2.082]              pIC50  4.70 to 6.30
 4  Cc1ccccc1-c1cccc2c1CC[C@@H]2Oc1cc(OCc2cncc(C#N)c2)c(CN[C@@H](CO)C(=O)O)cc1Cl [Example 2.006]              pIC50        > 7.00
 5  COc1cccc(-c2cccc3c2CCC3CCOc2cc(OCc3cncc(C#N)c3)c(CN3CCC(O)CC3)cc2Cl)c1F (stereo not shown) [Example 2.087]              pIC50  4.70 to 6.30
 6  CC(C)OC(=O)[C@@H](NCc1cc(Cl)c(O[C@H]2CCc3c(-c4ccccc4F)cccc32)cc1OCc1cncc(C#N)c1)[C@@H](C)O [Example 2.169]              pIC50  4.70 to 6.30
 7  COc1cccc(F)c1-c1cccc2c1CC[C@@H]2Oc1cc(OCc2cncc(C#N)c2)c(CN[C@@H](CO)C(=O)O)cc1Cl [Example 2.105]              pIC50  6.30 to 7.00
 8  COc1cccc(-c2cccc3c2CC[C@@H]3Oc2cc(OCc3cncc(C#N)c3)c(CNCC(C)(C)O)cc2Cl)c1F [Example 2.142]              pIC50  6.30 to 7.00
 9  N#Cc1cncc(COc2cc(O[C@H]3CCc4c(-c5ccc6c(c5Cl)OCCO6)cccc43)c(Cl)cc2CN[C@@H](CO)C(=O)O)c1 [Example 2.161]              pIC50        > 7.00
10  C[C@@H](O)[C@H](NCc1cc(Cl)c(O[C@H]2CCc3c(-c4ccccc4F)cccc32)cc1-c1cncc(C#N)c1)C(=O)O [Example 2.126]              pIC50  6.30 to 7.00
11  COc1ccccc1-c1cccc2c1CC[C@@H]2Oc1cc(OCc2cncc(C#N)c2)c(CN[C@@H](CO)C(=O)O)cc1Cl [Example 2.009]              pIC50  4.70 to 6.30
12  O=C(O)[C@H](CO)NCc1cc(Cl)c(O[C@H]2CCc3c(-c4ccccc4F)cccc32)cc1OCC1CC1 [Example 2.038]              pIC50  6.30 to 7.00
13  N#Cc1cncc(COc2cc(O[C@H]3CCc4c(-c5ccccc5)cccc43)c(Cl)cc2CNCc2ccn[nH]2)c1 [Example 1.015]              pIC50  4.70 to 6.30
14  Cc1cccc(-c2cccc3c2CC[C@@H]3Oc2cc(OCc3cncc(C#N)c3)c(CN[C@@H](CO)C(=O)O)cc2Cl)c1F [Example 2.046]              pIC50        > 7.00
15  N#Cc1cncc(COc2cc(O[C@H]3CCc4c(-c5ccccc5F)cccc43)c(Cl)cc2CNC(CO)C(=O)NO)c1 (stereo partly shown) [Example 2.166]              pIC50  6.30 to 7.00
16  O=C(O)[C@H](CO)NCc1cc(Cl)c(OC2CCc3c(-c4ccccc4)cccc32)cc1OCc1cccnc1 (stereo partly shown) [Example 1.011]              pIC50  4.70 to 6.30
17  COc1cc(O[C@H]2CCc3c(-c4cccc(OC)c4F)cccc32)c(Cl)cc1CN1CC(O)C1 [Example 2.041]              pIC50  4.70 to 6.30
18  CC(C)Oc1cc(O[C@H]2CCc3c(-c4ccccc4)cccc32)c(Cl)cc1CN[C@@H](CO)C(=O)O [Example 2.011]              pIC50  4.70 to 6.30
